FYI, the data here is from paper PMC12702928.

# method-description: Pharmacokinetic study in rodents (non-compartmental analysis)
# Assay type: in vivo, Wistar rats
# experimental-context: male, Wistar, rat, plasma; Intravenous 2 mg/kg
# Procedure: As described in our previous study, the NC-CUR was prepared via the interfacial deposition method of preformed polymers, ensuring the same final concentration ([Santos et al., 2021]). […] For the oral administration groups, blood sampling began 0.25 h post-gavage (Figure 1B). […] Pharmacokinetic parameters were calculated using non-compartmental analysis with PKanalix 2023R1 software (Lixoft, France). Plasma concentration-time profiles for each experimental group were analyzed individually.
value-type: MRT (min)
One number for each entry, in min.

stdin: Identify MRT associated with the compound COc1cc(/C=C/C(=O)CC(=O)/C=C/c2ccc(O)c(OC)c2)ccc1O [CUR, Curcumin]
stdout: 47.4

###

# method-description: Fly whole-body CUR quantification after 10-day dietary exposure, healthy flies
# Type: in vivo, D. melanogaster
# experimental-context: both sexes, Drosophila melanogaster, whole-body homogenate, oral, 110 ng/mL in food medium for 10 days
# Procedure: This homogenate was prepared by weighing 0.02 g of whole flies, followed by adding 600 µL of acetonitrile and homogenizing with an Ultra-Turrax (T10, GmbH, Germany) for 30 s at 28,800 rpm. The mixture was centrifuged at 14,000 rpm for 10 min at 4 °C to obtain the whole-body fly homogenate supernatant (S1). Subsequently, 90 µL of S1 was spiked with 10 µL of each calibration standard and 10 µL of the IS. Deproteinization was achieved by adding 1,000 µL of acetonitrile and 10 µL of 0.2% HCl. […]
value-type: concentration at 10 days

stdin: Identify concentration at 10 days associated with the compound COc1cc(/C=C/C(=O)CC(=O)/C=C/c2ccc(O)c(OC)c2)ccc1O
stdout: ~75 ng/mL

###

# method-description: Pharmacokinetic study in rodents (non-compartmental analysis)
# Type: in vivo, Wistar rats
# experimental-context: male, Wistar, rat, plasma; Oral 6 mg/kg
value-type: Tmax (h)
One number for each entry, in h.

stdin: Identify Tmax associated with the compound COc1cc(/C=C/C(=O)CC(=O)/C=C/c2ccc(O)c(OC)c2)ccc1O
stdout: 1.31

###

# method-description: Pharmacokinetic study in rodents (non-compartmental analysis)
# Type: in vivo, Wistar rats
# experimental-context: male, Wistar, rat, plasma, iv, 2 mg/kg, Intravenous 2 mg/kg; male Wistar rats; n = 9
# Description: As described in our previous study, the NC-CUR was prepared via the interfacial deposition method of preformed polymers, ensuring the same final concentration ([Santos et al., 2021]). […] For the oral administration groups, blood sampling began 0.25 h post-gavage (Figure 1B). […] Pharmacokinetic parameters were calculated using non-compartmental analysis with PKanalix 2023R1 software (Lixoft, France). Plasma concentration-time profiles for each experimental group were analyzed individually.
value-type: AUC(0-inf) (ng·h/mL)
One number for each entry, in ng·h/mL.

stdin: Identify AUC(0-inf) associated with the compound COc1cc(/C=C/C(=O)CC(=O)/C=C/c2ccc(O)c(OC)c2)ccc1O
stdout: 100

###

# method-description: Pharmacokinetic study in rodents (non-compartmental analysis)
# Format: in vivo, Wistar rats
# experimental-context: male, Wistar, rat, plasma; Oral 6 mg/kg
value-type: MRT (h)
Answers are plain numbers, in h.

stdin: Identify MRT associated with the molecule COc1cc(/C=C/C(=O)CC(=O)/C=C/c2ccc(O)c(OC)c2)ccc1O
stdout: 3
